Reference for the values: patent US20150118229A1

Assay: Pharmacokinetics in rat
Type: in vivo
Conditions: male, Sprague-Dawley, plasma; rat M, oral 50 mg/kg/day, Day 1, mean (SD)
Endpoint Label: AUC (ng·h/mL)
All answers are understood in ng·h/mL, so give the number only.

## Task Provide measured AUC value, entry: CC[C@@H]1CN(C(=O)NCC(F)(F)F)C[C@@H]1c1cnc2cnc3[nH]ccc3n12 [Compound 1]
## Result 15900

----------
Assay: Pharmacokinetics in rat
Assay type: in vivo
Conditions: male, Sprague-Dawley, plasma; rat M, oral 50 mg/kg/day, Day 29, mean (SD)
Endpoint Label: AUC at 29 days (µg·h/mL)
All answers are understood in µg·h/mL, so give the number only.

## Task Provide measured AUC at 29 days value, entry: "CC[C@@H]1CN(C(=O)NCC(F)(F)F)C[C@@H]1c1cnc2cnc3[nH]ccc3n12"
## Result 16.8

----------
Molecular target: MATEK (Homo sapiens, UniProt Q86VL8)
Sequence (Q86VL8 1-566 isoform Q86VL8-3): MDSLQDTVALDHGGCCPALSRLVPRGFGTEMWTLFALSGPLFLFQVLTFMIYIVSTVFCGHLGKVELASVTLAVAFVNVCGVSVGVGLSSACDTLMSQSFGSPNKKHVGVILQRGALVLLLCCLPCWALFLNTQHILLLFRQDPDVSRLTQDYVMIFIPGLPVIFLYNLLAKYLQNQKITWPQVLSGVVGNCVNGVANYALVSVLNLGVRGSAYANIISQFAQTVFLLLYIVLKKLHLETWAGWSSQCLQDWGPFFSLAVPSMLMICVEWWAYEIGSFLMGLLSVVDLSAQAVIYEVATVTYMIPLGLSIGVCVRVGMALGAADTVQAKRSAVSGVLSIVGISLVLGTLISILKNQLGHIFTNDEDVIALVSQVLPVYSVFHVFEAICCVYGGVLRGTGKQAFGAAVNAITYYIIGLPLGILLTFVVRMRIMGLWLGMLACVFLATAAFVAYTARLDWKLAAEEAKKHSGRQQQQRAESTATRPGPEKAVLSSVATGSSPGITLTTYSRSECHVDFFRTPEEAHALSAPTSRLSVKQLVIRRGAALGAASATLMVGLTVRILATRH
Endpoint Label: IC50

## Task State recorded IC50 with MATEK (Homo sapiens, UniProt Q86VL8), entry "CC[C@@H]1CN(C(=O)NCC(F)(F)F)C[C@@H]1c1cnc2cnc3[nH]ccc3n12" , no comment.
## Result > 15 µM

----------
Test: in vivo
Conditions: dog, po, 1 mg/kg, Cmax
Endpoint Label: Cmax

## Task Provide measured Cmax value, entry: "CC[C@@H]1CN(C(=O)NCC(F)(F)F)C[C@@H]1c1cnc2cnc3[nH]ccc3n12"
## Result 349 ng/mL

----------
Assay: Pharmacokinetics in rat
Type: in vivo
Details: female, Sprague-Dawley, plasma; rat F, oral 50 mg/kg/day, Day 1, mean (SD)
Endpoint Label: AUC (ng·h/mL)
All answers are understood in ng·h/mL, so give the number only.

## Task Provide measured AUC value, entry: "CC[C@@H]1CN(C(=O)NCC(F)(F)F)C[C@@H]1c1cnc2cnc3[nH]ccc3n12"
## Result 22400

----------
Assay: in vivo
Conditions: dog, po, 1 mg/kg
Endpoint Label: half-life (h)
All answers are understood in h, so give the number only.

## Task Provide measured half-life value, entry: "CC[C@@H]1CN(C(=O)NCC(F)(F)F)C[C@@H]1c1cnc2cnc3[nH]ccc3n12"
## Result 2.8

----------
Test system: IL-7-dependent STAT5 phosphorylation
Experiment: Ex vivo IL-7-stimulated pSTAT5 in blood of orally dosed rats
Details: Rattus norvegicus, po; rats dosed bid 14 days, blood 12 hours after final dose; read-out: IC50, inhibition of IL-7-induced pSTAT5 formation ex vivo
Source text: Unlike other common gamma chain receptors, IL-7 receptors are expressed relatively abundantly on peripheral blood T cells, enabling the use of IL-7 as an agonist in ex vivo stimulation assays. Stimulation of whole blood with IL-7 leads to phosphorylation of STAT5, which can be measured by flow cytometry. Because STAT proteins are Jak kinase substrates, inhibition of their phosphorylation can be considered a mechanistic readout for Jak inhibition.
pIC50: −log10 of the molar value.
Endpoint Label: pIC50

## Task State recorded pIC50 with IL-7-dependent STAT5 phosphorylation, entry CC[C@@H]1CN(C(=O)NCC(F)(F)F)C[C@@H]1c1cnc2cnc3[nH]ccc3n12 [Compound 1] , no comment.
## Result ~7.70
